Biological target: TRβ (Homo sapiens)
Construct: expressed in transfected cells; host or cells: HEK293
Sequence (P10828 217-461 limits assumed): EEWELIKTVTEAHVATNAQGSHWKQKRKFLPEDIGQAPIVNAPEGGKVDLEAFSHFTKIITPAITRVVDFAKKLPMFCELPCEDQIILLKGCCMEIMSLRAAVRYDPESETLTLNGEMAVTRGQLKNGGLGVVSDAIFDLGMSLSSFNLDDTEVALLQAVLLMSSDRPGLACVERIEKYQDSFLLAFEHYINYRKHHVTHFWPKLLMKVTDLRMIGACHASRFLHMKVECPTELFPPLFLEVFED
Test: TR reporter-gene assay (Gal4 DBD hybrid, luciferase), TRβ
Type: cell-based
Conditions: HEK293-derived reporter cells, 24 hr treatment; read-out: TRβ EC50
pEC50: −log10 of the molar value.
MEASURE_NAME: pEC50

In [3]: df
Out[3]:
                                   compound  value_observed
0  CNC(=O)CSCc1cc(C)c(Cc2ccc(O)c(C(C)C)c2)c(Cl)c1F [Compound 217]          < 6.00
1  CC(c1ccc(F)cc1)c1c(O)ccc(Cc2c(Cl)cc(NCC(=O)O)cc2Cl)c1F (stereo not shown) [Compound 50]          > 8.00

I'd like to know its pEC50. The compound in question is CC(C)c1cc(Cc2c(Cl)cc(NCC(=O)O)c(F)c2Cl)ccc1O [Compound 75]
7.00 to 8.00

I'd like to know its pEC50. The compound in question is CC(C)c1c(O)ccc(Cc2c(Cl)cc(CCC(=O)O)cc2Cl)c1F [Compound 40]
> 8.00
